Target: Human recombinant sEH (Homo sapiens (Human))
Assay: Soluble epoxide hydrolase inhibition (PHOME fluorescent substrate)
Format: biochemical
Details: Table 2; read-out: SEHi activity IC50
Each entry below lists one item and its recorded IC50 value.
Value Type: IC50

* CCCCCNC(=O)NCCCC/C=C\CCCCCCc1nnn[nH]1 | 11 nM
* CCCCCCC(=O)N(CCCC/C=C\CCCCCCC1=NOS(=O)N1)C(C)C (centres unmarked) | > 500 nM

* * *

System: bovine coronary artery
Assay: Vasorelaxant activity in bovine coronary artery rings precontracted with U-46619
Type: cell-based
Settings: Bos taurus; bovine coronary artery; read-out: Vascular Relax. EC50
Value Type: EC50 (µM)

• CCCCCNC(=O)NCCCC/C=C\CCCCCCC(=O)N[C@@H](CC(=O)O)C(=O)O (stereo in doubt) = 1.6
• CCCCCNC(=O)NCCCC/C=C\CCCCCCc1nnn[nH]1 = 0.18
• CCCCCNC(=O)NCCCC/C=C\CCCCCSc1ncn[nH]1 = 9.8
• CCCCNC(=O)C(=O)NCCCCCOc1cccc2sc(NC(C)=O)nc12 = 2.4
• CCCCNC(=O)C(=O)NCCCC/C=C\CCCCCCc1nnn[nH]1 = 1.7
• CCCCCNC(=O)NCCCC/C=C\CCCCC[S+]([O-])c1ncn[nH]1 (stereo not shown) = 3.5
• CCCCCNC(=O)NCCCC/C=C\CCCCOCC(=O)O = 0.63
• CCCCCNC(=O)NCCCC/C=C\CCOc1cccc2sc(NC(C)=O)nc12 = 3.3
• CCCCCNC(=O)NCCCC/C=C\CCCCCS(=O)(=O)c1ncn[nH]1 = 3.1

* * *

System: bovine coronary artery
Test: Vasorelaxant activity in bovine coronary artery rings precontracted with U-46619
Assay type: cell-based
Conditions: Bos taurus; bovine coronary artery; read-out: Vascular Relax. EC50
pEC50: −log10 of the molar value.
Each entry below lists one item and its recorded pEC50 value.
Value Type: pEC50

- CCCCCNC(=O)NCCCC/C=C\CCCCCNS(=O)(=O)c1ccccc1: 5.47
- CCCCCCC(=O)N(CCCC/C=C\CCCCCCC(=O)NCC(=O)O)C(C)C: 5.72
- CCCCCNC(=O)NCCCC/C=C\CCCCCCS(=O)(=O)[O-].[Na+]: 5.12
- CCCCCNC(=O)NCCCCCOc1cccc2sc(NC(C)=O)nc12: 6.05

* * *

Each entry below lists one item and its recorded IC50 value.
Target: Human recombinant sEH (Homo sapiens (Human), UniProt P34913)
Sequence (P34913 whole entry): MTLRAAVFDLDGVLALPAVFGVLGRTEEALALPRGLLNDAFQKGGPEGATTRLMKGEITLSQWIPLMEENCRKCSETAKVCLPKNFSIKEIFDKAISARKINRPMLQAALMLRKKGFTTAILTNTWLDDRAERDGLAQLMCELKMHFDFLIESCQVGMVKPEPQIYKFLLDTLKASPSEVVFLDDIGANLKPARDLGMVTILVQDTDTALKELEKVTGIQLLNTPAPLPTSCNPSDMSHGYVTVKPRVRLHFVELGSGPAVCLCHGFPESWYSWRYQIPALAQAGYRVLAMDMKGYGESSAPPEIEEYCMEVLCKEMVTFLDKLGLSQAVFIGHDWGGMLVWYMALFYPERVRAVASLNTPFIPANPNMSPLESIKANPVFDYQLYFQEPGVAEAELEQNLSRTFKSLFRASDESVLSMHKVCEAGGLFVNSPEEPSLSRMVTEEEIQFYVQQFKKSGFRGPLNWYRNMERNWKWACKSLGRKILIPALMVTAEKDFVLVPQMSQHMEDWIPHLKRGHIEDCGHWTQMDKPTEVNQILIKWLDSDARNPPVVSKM
Assay: Soluble epoxide hydrolase inhibition (PHOME fluorescent substrate)
Format: biochemical
Settings: Table 1 head prints μM (Table 2 prints nM for same numbers); read-out: sEHi IC50
Value Type: IC50

* CCCCCCC(=O)N(CCCC/C=C\CCCCCCC1=NOS(=O)N1)C(C)C (stereo not drawn) [Compound 26] | > 0.5 µM
* CCCCCNC(=O)NCCCCCOc1cccc2sc(NC(C)=O)nc12 [Compound 31] | > 0.5 µM
* CCCCNC(=O)C(=O)NCCCC/C=C\CCCCCCc1nnn[nH]1 [Compound 21] | > 0.5 µM
